Target chain: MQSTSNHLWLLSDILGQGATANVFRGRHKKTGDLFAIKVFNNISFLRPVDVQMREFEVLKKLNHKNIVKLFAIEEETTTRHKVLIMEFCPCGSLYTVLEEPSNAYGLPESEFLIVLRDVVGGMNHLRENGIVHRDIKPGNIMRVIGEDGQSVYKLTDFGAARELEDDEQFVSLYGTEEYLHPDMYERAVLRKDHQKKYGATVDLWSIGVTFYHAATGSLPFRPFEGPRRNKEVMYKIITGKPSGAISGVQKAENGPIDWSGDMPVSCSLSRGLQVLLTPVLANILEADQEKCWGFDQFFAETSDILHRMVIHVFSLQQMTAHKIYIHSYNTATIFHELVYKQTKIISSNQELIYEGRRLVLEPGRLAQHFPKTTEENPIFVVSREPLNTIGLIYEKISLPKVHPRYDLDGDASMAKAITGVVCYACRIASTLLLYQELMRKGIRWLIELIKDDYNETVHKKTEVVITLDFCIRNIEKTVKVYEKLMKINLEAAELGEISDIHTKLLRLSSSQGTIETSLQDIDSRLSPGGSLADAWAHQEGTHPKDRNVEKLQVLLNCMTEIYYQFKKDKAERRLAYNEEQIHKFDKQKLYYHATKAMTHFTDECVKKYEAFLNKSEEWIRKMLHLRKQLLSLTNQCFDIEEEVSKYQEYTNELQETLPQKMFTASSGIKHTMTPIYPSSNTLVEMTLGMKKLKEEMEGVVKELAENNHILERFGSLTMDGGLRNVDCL
observation-type: pIC50
# log scale: pIC50 equals minus log10 of the concentration in mol/L

Query: What pIC50 value was documented for this compound, `N#Cc1cc(-c2ccnc(Nc3ccc(NC(=O)CN4CCOCC4)nc3)n2)cnc1N1CC[C@H](F)C1` ?
Result: 7.90
